Assay: Pharmacokinetics after intravenous administration of serum containing unchanged NRG and NRG metabolites
Type: in vivo, rat
Conditions: plasma, iv; rats, serum 500 μL/rat; two-compartment model
Attribute measured: AUC(0-t) (ng·h/mL)

INSERT INTO assay_data (compound, attribute_measured, measured_result) VALUES
  ('O=C1C[C@@H](c2ccc(O)cc2)Oc2cc(O)cc(O)c21 [NRG, Naringenin]', 'AUC(0-t)', 120);

###

Test: Pharmacokinetics after intravenous administration of serum containing unchanged NRG and NRG metabolites
Assay type: in vivo, rat
Settings: plasma, iv; rats, serum with 34.8 μg/mL unchanged NRG and 134.5 μg/mL NRG metabolites, 500 μL/rat; two-compartment model
Attribute measured: AUC(0-inf) (ng·h/mL)

INSERT INTO results (given_smiles, value_unit, measured_result) VALUES
  ('O=C1C[C@@H](c2ccc(O)cc2)Oc2cc(O)cc(O)c21', 'ng·h/mL', 130);

###

Assay: Pharmacokinetics after oral administration
Format: in vivo, rat
Details: rat, rats, equivalent to 100 mg/kg NRG, unchanged NRG in plasma
Attribute measured: Cmax (ng/mL)

INSERT INTO measurements (given_smiles, measured_result) VALUES
  ('O=C1C[C@@H](c2ccc(O)cc2)Oc2cc(O)cc(O)c21', 130);

###

Test: Pharmacokinetics after oral administration
Format: in vivo, rat
Conditions: rat, plasma, po, 100 mg/kg, rats, equivalent to 100 mg/kg NRG, unchanged NRG in plasma, read-out: AUC0–t
Attribute measured: AUC(0-t) (ng·h/mL)

INSERT INTO results (given_smiles, measured_result) VALUES
  ('O=C1C[C@@H](c2ccc(O)cc2)Oc2cc(O)cc(O)c21', 740);

###

Assay: Pharmacokinetics after intravenous administration of serum containing unchanged NRG and NRG metabolites
Format: in vivo, rat
Conditions: plasma, iv; rats, i.v., serum 500 μL/rat; two-compartment model; read-out: t1/2, elimination half-life time (converted)
Attribute measured: half-life (min)

INSERT INTO assay_data (given_smiles, attribute_measured, measured_result) VALUES
  ('O=C1C[C@@H](c2ccc(O)cc2)Oc2cc(O)cc(O)c21', 'half-life', 59.4);

###

Test: Pharmacokinetics after oral administration
Type: in vivo, rat
Settings: rat, rats, equivalent to 100 mg/kg NRG, unchanged NRG in plasma
Text: Each solution was suspended in ion-exchange water immediately prior to administration. […] The blood was stored in heparinized hematocrit tubes, and the plasma was isolated by centrifugation. […] Multiple reaction monitoring, using precursor → product ion transitions of m/z 273.04 → 152.97 and m/z 255.10 → 198.99, was used to quantify NRG and daidzein (internal standard), respectively.
Attribute measured: Tmax (h)

INSERT INTO results (given_smiles, measured_result) VALUES
  ('O=C1C[C@@H](c2ccc(O)cc2)Oc2cc(O)cc(O)c21', 4);

###

Assay: Pharmacokinetics after intravenous administration of serum containing unchanged NRG and NRG metabolites
Type: in vivo, rat
Conditions: plasma, iv; rats, i.v., serum 500 μL/rat; two-compartment model; read-out: CL, total body clearance (converted)
Attribute measured: clearance (mL/min)

INSERT INTO results (given_smiles, attribute_measured, measured_result) VALUES
  ('O=C1C[C@@H](c2ccc(O)cc2)Oc2cc(O)cc(O)c21', 'clearance', 2.67);
